molecular target: Muscarinic acetylcholine receptor; assay: Affinity for muscarinic receptor in rat brain was measured by inhibition of [3H](R)-quinuclidinyl benzilate (QNB) binding; assay type: tissue-based
This listing pairs molecules with measured log10(IC50).
// units: µM (pre-log); metric: IC50; scale: log10

Below are worked cases with known answers.
CCCOC(=O)C1CCC(N)=NC1.Cl (centres undefined)    0.23
C#CCOC(=O)C1CCC(N)=NC1.Cl (centres undefined)    0.36
COC(=O)C1CCC(N)=NC1.Cl (centres undefined)    1.00

Read the next record carefully.
Task: I would be grateful if you could share the reported log10(IC50) for CCOC(=O)C1CCC(N)=NC1.Cl (centres undefined) .
Result: 0.63

Origin of measurements: ChEMBL document CHEMBL1127441
